biological target: Src SH2 domain (Homo sapiens, UniProt P12931); construct: 350 nM of GST-Src SH2 domain fusion protein; assay: fluorescence polarization (FP) competition binding assay against fluorescent probe EPQ(pY)EEIPIYL(K-Flc); settings: concentration that reduces binding of fluorescein-labeled probe EPQ(pY)EEIPIYL(K-Flc) to the Src SH2 domain by 50%; 350 nM GST-Src SH2, 50 nM probe, 25°C, pH 7.3
Sequence (P12931 151-248 limits assumed): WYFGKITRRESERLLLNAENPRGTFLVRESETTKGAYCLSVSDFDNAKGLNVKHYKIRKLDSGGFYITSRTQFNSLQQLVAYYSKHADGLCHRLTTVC
Where a SMILES comes first, the peptide text is derived from it. [ ]: non-standard residue; d: D form. pY = N[C@@H](Cc1ccc(OP(=O)(O)O)cc1)C(=O)O
Below, each entry is listed with its recorded pIC50.
Give only the number. pIC50 is defined as minus log10 of concentration in molar units.

Answered cases to consult:
compound | observation.type | data.value
CC[C@H](C)[C@H](NC(=O)[C@H](CC(N)=O)NC(=O)[C@H](CCC(=O)O)NC(=O)[C@@H](N)Cc1ccc(OP(=O)(O)O)cc1)C(=O)O [pYENI, pTyr-Glu-Asn-Ile] (H-[pY]ENI-OH) | pIC50 | 6.00
N[C@@H](Cc1ccc(OP(=O)(O)O)cc1)C(=O)N[C@@H](CCC(=O)O)C(=O)N[C@@H](CCC(=O)O)C(=O)NCC(=O)O [pYEEG] (H-[pY]EEG-OH) | pIC50 | 5.24

Query: Identify the measured pIC50 of CC(C)[C@H](NC(=O)[C@H](CC(N)=O)NC(=O)[C@H](CCC(=O)O)NC(=O)[C@@H](N)Cc1ccc(OP(=O)(O)O)cc1)C(=O)O [pYENV] (H-[pY]ENV-OH) for Src SH2 domain (Homo sapiens, UniProt P12931).
Response: 5.68
